observable: melting point

>>> df
                                   compound         result
0  COc1ccc(C#Cc2cc3ncc(C#N)c(Nc4cc(OC)c(Cl)cc4Cl)c3s2)cc1  249 to 250 °C
1       Nc1c(CC(=O)O)cccc1S(=O)(=O)c1ccccc1  218 to 220 °C
2  CC(C)(Cc1ccccc1)C(NC(=O)c1ccc(Cl)cc1)NC(=N[N+](=O)[O-])Nc1cccnc1 (configuration not stated)  205 to 207 °C
3           O=C1NCCN1c1cccc([N+](=O)[O-])c1  158 to 160 °C
4             C=CCCC(C#N)(C#N)Cc1ccc(Cl)cc1        63.7 °C
5   CNC1CCN(c2nc3ccccc3n2Cc2ccc(C#N)cc2)CC1         133 °C

Query: Can you look up the measured melting point of CCCCCC(C#Cc1ccc(C(=O)O)cc1)c1ccc2c(c1)C(C)(C)CCC2(C)C (racemic) for me?
Result: 115 to 116 °C

====

observable: melting point

Below, each entry is followed by its recorded melting point result.
>>> print(df.to_string())
                                        smi         result
0  CNC(=S)NS(=O)(=O)c1cc(CCNC(=O)c2cc(Cl)ccc2OC)ccc1OC  190 to 193 °C
1                            OCCNCCCCCCNCCO    75 to 79 °C
2  CC(C)c1cccc(Nc2nc(Cl)nc(NCc3ccccn3)n2)c1  130 to 132 °C

Query: Can you look up the measured melting point of CCOC(=O)c1c[nH]c2c(F)c(C)c(F)cc2c1=O for me?
Result: 260 to 263 °C

Query: Can you look up the measured melting point of CSc1ccc(C(=O)CCC#N)cc1 for me?
Result: 122 to 124 °C

Query: Can you look up the measured melting point of COc1cc(C)cc(S(=O)(=O)c2cccc(N)c2C#N)c1 for me?
Result: 166 to 168 °C

====

melting point: recorded values

Below, each entry is followed by its recorded melting point result.
>>> df
                                   compound         result
0  COC(=O)c1cc(-c2ccc(Cl)cc2)n(Cc2ccc(Cl)cc2Cl)n1         105 °C
1  N#Cc1nn(-c2c(Cl)cc(C(F)(F)F)cc2Cl)c(Cl)c1I         116 °C
2       CSc1nc(N)c(C#N)c(N2CCc3ccccc3CC2)n1       > 200 °C
3  Cc1nc(Br)sc1C(=O)N[C@H](C)[C@](O)(Cn1cncn1)c1ccc(F)cc1F  155 to 163 °C
4  CC(C)C(C)(C(N)=O)N1C(=O)C=CC1=O (configuration not stated)  138 to 140 °C
5              CC(=O)c1c(C)oc(-c2ccncc2)c1C  65 to 66.5 °C

Proceed to the following item.
Query: Can you look up the measured melting point of CC(C(=O)O)c1ccc2c(c1)Sc1ncccc1CC2 (configuration not stated) for me?
Result: 161 to 162 °C

====

melting point: recorded values

Below, each entry is followed by its recorded melting point result.
>>> print(df.to_string())
                                   compound         result
0  O=C(NCc1cc(C(F)(F)F)cc(C(F)(F)F)c1)c1ccccc1-c1ccccc1    86 to 87 °C
1   O=[N+]([O-])c1cccc(S(=O)(=O)Nc2nncs2)c1  189 to 192 °C
2  COc1ccc(NC(=S)N2CCc3cc(S(=O)(=O)N4CC(c5ccccc5)NC4=O)ccc32)cc1 (stereo not given)  181 to 183 °C

Query: Can you look up the measured melting point of O=[N+]([O-])c1ccc(-c2cccc(-c3cn([C@H]4CN5CCC4CC5)nn3)c2)cn1 for me?
Result: 180 °C

Query: Can you look up the measured melting point of COC(=O)N=C(NC(=O)OC)SC for me?
Result: 99 to 101 °C

Query: Can you look up the measured melting point of COc1ncccc1Nc1c(NC(NC(=O)c2cccc(C)c2)C(C)(C)Cc2ccccc2)c(=O)c1=O (stereo not given) for me?
Result: 233 to 235 °C

Source of measurements: a melting point compilation (Tetko et al.; mined from patent text by program, amines drawn as free bases though some values may be those of a salt)
